# Test system: F1*sub RNA substrate (template-directed ligation)
# MEASUREMENT_PROTOCOL: fraction ligated after 30 min (ligated reads / total reads); higher = more ligase activity; sequences stand for … in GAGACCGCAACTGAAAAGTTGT…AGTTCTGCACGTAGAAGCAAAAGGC
# EXPERIMENTAL_SETUP: 42 °C
ATTRIBUTE_MEASURED: fraction ligated
Write the value as a bare number.

Please review the following examples before continuing.
TATCACGTCGTAAGACACTTTGGTGGGTTGA [3d1306] : 0.721
TTCACTTGTCTAAGACACTTTGGAGGGTTGA [3d412] : 0.154
TATCACTTGCGAAGACACTTTGGATGGGTTG [3d1625] : 0.824
TATCACTTGTGTAAACACTTTGGTGGGTTGA [3d1749] : 0.0929
TACACTTGTCGTAAGACACTTTGATGGGTTG [3d726] : 0.0988
TATACTTGTCGTAAGACACTTTGGAGGGTTG [3d944] : 0.00819

Tell me measured fraction ligated for TATCACTTGTCGTGACACTTTGATGGGTTGA [3d1987] please.
0.508

Respond only with fraction ligated recorded for TATCATTGTGTAAACACTTTGGATGGGTTGA [3d1175]
0.82

---

Catalogue of sequences with associated fraction ligated
# Test system: F1*sub RNA substrate (template-directed ligation)
# MEASUREMENT_PROTOCOL: fraction ligated after 30 min (ligated reads / total reads); higher = more ligase activity; sequences stand for … in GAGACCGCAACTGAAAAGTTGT…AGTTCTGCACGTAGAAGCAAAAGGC
# EXPERIMENTAL_SETUP: 42 °C
# answer = number (no unit)

Use the examples below as a reference point.
TATACTTGTGTAAGACACTTTGGATGGTTGA [3d840] : 0.109
TCATTGTCGTAAGACACTTTGGATGGGTTGA [3d4] : 0.164
TATCACTTGTTAAGACACTTTGGATGGTTGA [3d1715] : 0.348
TATCTTGTCGTAAGACACTTTGATGGGTTGA [3d752] : 0.763
TACACTTGTCGTAAGACCTTGGATGGGTTGA [3d700] : 0.222

Assign fraction ligated to the following record: TTACTTGTCGTAAGACACTTTGGATGGTTGA [3d295]
0.323

Given the sequence ATACTTGTCGTAAGACACTTTGGTGGGTTGA [3d62] , write its reported fraction ligated.
0.0395

Tell me measured fraction ligated for ATCACTTGTCGTAAGACCTTTGGAGGGTTGA [3d242] please.
0.04

Provide one value: measured fraction ligated of TATCCTTGTCGTAAGCATTTGGATGGGTTGA [3d1067]
0.763

---

Reported values of fraction ligated for individual entries
# Tested on: F1*sub RNA substrate (template-directed ligation)
# MEASUREMENT_PROTOCOL: fraction ligated after 30 min (ligated reads / total reads); higher = more ligase activity; sequences stand for … in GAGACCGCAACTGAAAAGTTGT…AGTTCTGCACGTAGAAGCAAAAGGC
# EXPERIMENTAL_SETUP: 42 °C
Answer with the value's number alone.

// worked examples, fraction ligated included
TATCACTTGTCGTAAACCTTTGGATGGGTTGA [2d235] : 0.785
TACACTTGTCGAAACACTTTGGATGGGTTGA [3d647] : 0.16

Consider the sequence TATCCTTGTCTAAGACACTTTGATGGGTTGA [3d1023] . State its measured fraction ligated.
0.748

Read the entry TATCACTTGCGAAGACACTTTGGATGGGTTA [3d1624] and write its reported fraction ligated.
0.733

Give the measured fraction ligated for TATCACTTGTCTAAACACTTTGGAGGGTTGA [3d1842]
0.133

Identify fraction ligated associated with the sequence TATACTTGTCGTAAGACACTTGGTGGGTTGA [3d927]
0.049

---

# Tested on: F1*sub RNA substrate (template-directed ligation)
# MEASUREMENT_PROTOCOL: fraction ligated after 30 min (ligated reads / total reads); higher = more ligase activity; sequences stand for … in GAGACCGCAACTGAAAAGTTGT…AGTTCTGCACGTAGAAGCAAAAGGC
# EXPERIMENTAL_SETUP: 42 °C
ATTRIBUTE_MEASURED: fraction ligated

Some sequences with recorded fraction ligated:
TATCACTTGTCGTAAGCACTTGGATGGGTTG [3d2134] : 0.76
TATCACTGTCGTAGCACTTTGGATGGGTTGA [3d1387] : 0.881
TATCACTTGTCTAAGAACTTTGGATGGGTTA [3d1862] : 0.735
TACACTTGTCGTAAACACTTTGGATGGTTGA [3d679] : 0.101
TTCACTTGTCGAAGACACTTTGGATGGTTGA [3d426] : 0.578

--- query ---
Output fraction ligated of TACACTTGTCGAAGACACTTTGGATGGTTGA [3d656]
0.505

---

Each record here notes measured fraction ligated.
# Tested on: F1*sub RNA substrate (template-directed ligation)
# MEASUREMENT_PROTOCOL: fraction ligated after 30 min (ligated reads / total reads); higher = more ligase activity; sequences stand for … in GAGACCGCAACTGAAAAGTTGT…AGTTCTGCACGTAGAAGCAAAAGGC
# EXPERIMENTAL_SETUP: 42 °C

Some entries whose results are on file:
TATCATTGTCGTAAGACTTTGGATGGGTTGA [3d1237] : 0.802
TATCCTTGTCGTAGACACTTTGGATGGGTTGA [2d96] : 0.79
TATCACTGTCGTAAACACTTGGATGGGTTGA [3d1401] : 0.794
TATCATTGCGTAAGACACTTGGATGGGTTGA [3d1165] : 0.773
TATCTTGCGTAAGACACTTTGGATGGGTTGA [3d741] : 0.828

Supply reported fraction ligated belonging to this sequence: TATCACTTCGTAAGACACTTTGGATGGGTTG [3d1326]
0.795

Retrieve fraction ligated measured for TATCACTTGTCGTAAGACCTTTGATGGGTTGA [2d263] and print it.
0.76

Provide only the value of recorded fraction ligated for ATCACTTGTCGTAAGACACTTGGATGGTTGA [3d257]
0.216

Assign fraction ligated to the following record: TATACTTTCGTAAGAACTTTGGATGGGTTGA [3d802]
0.778

Given the sequence TATCACTTGTCGTAGACACTTGGTGGGTTGA [3d2037] , write its reported fraction ligated.
0.105

---

# System: F1*sub RNA substrate (template-directed ligation)
# MEASUREMENT_PROTOCOL: fraction ligated after 30 min (ligated reads / total reads); higher = more ligase activity; sequences stand for … in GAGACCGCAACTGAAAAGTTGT…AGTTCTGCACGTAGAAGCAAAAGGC
# EXPERIMENTAL_SETUP: 42 °C
// fraction ligated lookup, one value per entry
Just the number.

Solved entries:
TATCACTTGTCGTAAGAATTTGGAGGGTTGA [3d2155] : 0.0724
TATCATTGTGTAAGACACTTTGGATGGGTTA [3d1185] : 0.677
TATCACTTGCGAGACACTTTGGATGGGTTGA [3d1613] : 0.821
ATACTTGTCGTAAGACATTTGGATGGGTTGA [3d59] : 0.446

Complete the entry with fraction ligated for TATCACTTTCGTAGACACTTGGATGGGTTGA [3d1512]
0.752

Give fraction ligated for TATCACTGTCGTAAGAACTTGGATGGGTTGA [3d1419]
0.847

Item TTCACTTGTCGTAAACACTTTGGATGGGTTGA [2d35] : provide fraction ligated
0.646

Supply recorded fraction ligated for TATCACTTGTCAAGACACTTTGGATGGGTTGA [2d194] here.
0.809

For the sequence TATCACTTGTCTAAGACATTTGGATGGGTTA [3d1876] , give its measured fraction ligated value.
0.793

// fetch fraction ligated given entry TATCACTTGGTAGACACTTTGGATGGGTTGA [3d1586]
0.829

# return recorded fraction ligated for input TATCACTGTCGTAAGCACTTTGGATGGGTTA [3d1416]
0.752

---

# System: F1*sub RNA substrate (template-directed ligation)
# MEASUREMENT_PROTOCOL: fraction ligated after 30 min (ligated reads / total reads); higher = more ligase activity; sequences stand for … in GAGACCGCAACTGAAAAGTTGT…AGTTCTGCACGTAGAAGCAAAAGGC
# EXPERIMENTAL_SETUP: 42 °C
Note to self: values exactly at 0.1 are MET. So fraction ligated at or above 0.1 is MET, below is NOT MET.

Recorded results for 3 sequences are shown here.
ATCACTTGTCTAAGAACTTTGGATGGGTTGA [3d175] : MET
TACACTTCGTAAGACACTTTGGATGGGTTGA [3d567] : NOT MET
TATCACTTGTCGAAGACACTGGATGGGTTGA [3d1957] : MET

Does the reported fraction ligated for TATCACTTGTCGTAAGACACTTGATGGGTTA [3d2242] fall at or above the 0.1 mark?
NOT MET

Decide: fraction ligated of TACACTTGTGTAAGACACTTTGGTGGGTTGA [3d627] >= 0.1?
MET

Say whether TATCACTTTCGAAGCACTTTGGATGGGTTGA [3d1495] shows fraction ligated of 0.1 or more.
MET
